Molecular target: T1, UNK ZnF1-3 (human, UniProt Q9C0B0 31-174)
T1 sequence: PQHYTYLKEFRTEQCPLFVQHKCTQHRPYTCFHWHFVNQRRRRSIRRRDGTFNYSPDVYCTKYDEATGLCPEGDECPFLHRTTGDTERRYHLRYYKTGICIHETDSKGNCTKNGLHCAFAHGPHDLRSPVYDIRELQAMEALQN
Assay: nsRBNS (natural sequence RNA bind-n-seq); RBNS binding buffer (assumed for nsRBNS): 25 mM Tris pH 7.5, 150 mM KCl, 3 mM MgCl2, 0.01% Triton X-100, 500 ug/ml BSA, 20 U/ml SUPERase-In, 4 C; UNK is unkempt and MSI1 is Musashi-1; names of the RNAs are library labels; protein concentration not given here; high values mean tight binding
Over roughly 24,000 sequences, “enrichment r” has its median near 0.99; the highest 2% begin near 3.7. The entries come from a sample that favours the highest values as a whole.
# binarize binding signal: threshold 3 enrichment R inclusive, high side fulfilled, low side not fulfilled

BINDER: chr17:56552419:56552420:-_ENSMUSG00000013236_ENSMUST00000086828|mus_mus|mus_mus_mus_hu_False|38_88 (ssRNA) RNA: GGGAGUUCUACAGUCCGACGAUCAAAAAAUACACUAUUUAAAAAAAAAAGAAAAAAACGGGAUACAGUUACACUGAGAGUUUUAAAAGAAAGCUGGAAAAAAAAUGCAGCCCAGUGUCCCCAGGCUGCAGAGCGGGGAGGAGCCAACAGAGGAUUGAGCAUCA
LABEL CLASS: fulfilled

(Q) Is binding signal for chr17:35975164:35975165:-_ENSMUSG00000001525_ENSMUST00000001566|mus_hu|FALSE|FALSE (ssRNA) RNA: GGGAGUUCUACAGUCCGACGAUCGGAAUGCGCCCCAGAGGCUGGAGCAGCGAGGUGCAAACGCGACGGCAGGAAGGUUCUGAGAGGGAGAAAGGAGAGGGGAGGGCGCGGAGGGAAAGCAGGCUGGGCGGGGCGCGCGUGCGCCAACAGAGGAUUGAGCAUCA at or above 3 enrichment R?
(A) not fulfilled

(Q) binding signal >= 3 enrichment R for chr8:117878989:117878990:-_ENSG00000164754_ENST00000297338|hu_hu|hu_hu_hu_mus_True|8_8 (ssRNA) RNA: GGGAGUUCUACAGUCCGACGAUCCCAGAGGCCCUCGUUUACUGAGGACAAAAUGUGCGUAGAACAUUUUUCUUAUUUGCUAUGAAAUAAGAAGAAACCUGGAUCUCGGCGGGGAGCCGGGAGGGGUUGGGUGGCCCGGGAGGGCAACAGAGGAUUGAGCAUCA ?
(A) not fulfilled

(Q) Check if binding signal >= 3 enrichment R (inclusive). Item: 156047189_156047309_678_CDS_ENSG00000254726_ENST00000532414|human|control|control (ssRNA) RNA: GGGAGUUCUACAGUCCGACGAUCGAUGGUUGCCCCUUUGGGGCCCACCACCAGCCCCACCACGCGGUAGGGCACCCGCACACGGAUGGUCACCUGGCCGGGCAGAGCAGGAGCCACACCAAAGGCGGCGCCUGACUUGUUGCGCAACAGAGGAUUGAGCAUCA
(A) not fulfilled

(Q) Please indicate if the recorded binding signal for chr6:29525140:29525141:-_ENSMUSG00000012535_ENSMUST00000012679|mus_hu|FALSE|FALSE (ssRNA) RNA: GGGAGUUCUACAGUCCGACGAUCGUUAGUUUUGUACAAAUGUUCCCCCAGUCGGUACCAAAAGUUAAAUGAAAUUUCUACUACCUCAUAUUGAGGAUGGCCUGCACAGAUAAGCAGCAGCUCCAGAGUUCGAAGGUCCCCAAGCAACAGAGGAUUGAGCAUCA meets or exceeds 3 enrichment R.
(A) not fulfilled

(Q) // inclusive: binding signal at least 3 enrichment R? input: 52873384_52873592_4094_CDS_ENSMUSG00000035247_ENSMUST00000042052|mouse|control|control (ssRNA) RNA: GGGAGUUCUACAGUCCGACGAUCCACCAGGCGCCUCUGCCUUCUAAGAUUAGCUUCUGCUUCUUUAGCUGCUUUCCCUAGUUGGUCUUCGCACACGCCAUUCACAGUGCCAUAGAGUUCAAAGCCGGAGAGCGAGAGGUAGUGCAACAGAGGAUUGAGCAUCA
(A) not fulfilled

(Q) Say whether chr14:67424093:67424094:-_ENSMUSG00000022048_ENSMUST00000022629|mus_mus|motif|central (ssRNA) RNA: GGGAGUUCUACAGUCCGACGAUCGGAGACCGAGUGCAGGGGGCCCAAGAGGAAGCCCCAGGAACUGGCUGCCCACAGCAACGGUCACAGGCUCUUUAAAAAAAAAAAAAAUGGAAGAAAGGAAGUCUCAGAAUGUCCUCAGGUCAACAGAGGAUUGAGCAUCA shows binding signal of 3 enrichment R or more.
(A) fulfilled

(Q) Check this binder for binding signal at or above 3 enrichment R: chr14:89338683:89338684:+_ENSG00000165533_ENST00000346301|hu_hu|hu_hu_hu_mus_False|58_68 (ssRNA) RNA: GGGAGUUCUACAGUCCGACGAUCGUGGUUGUUGUGGACCAGGGCCAGCCUGAAGCAUUGGUGGGCCAAAUUUGUAUCUCCUAUUCCCACAGCUAUGUGCCCCAGGUUGUACCAGACAUCAGCUGCCUCUUCUUCAUUUUCAGCCAACAGAGGAUUGAGCAUCA
(A) not fulfilled

(Q) API: above_or_equal(metric=binding signal, cutoff=3 enrichment R) for item chr12:98991669:98991670:+_ENSG00000075415_ENST00000552981|hu_mus|motif|central (ssRNA) RNA: GGGAGUUCUACAGUCCGACGAUCGAAUCCAUUAAAUAUGCCUUUGUACUUCUGAGGGUCCACCUGCAUGCGGCACUUUACGGAGUCCAGGGGAACAACAGCAGUGUGUGUCAGCCCACAACUUAAGACCCCACCAAAGCCACACAACAGAGGAUUGAGCAUCA
(A) not fulfilled
